system: NOMO-1; assay type: cell-based; conditions: CD74 ADC with the named linker-payload, 5 days; read-out: NOMO-1 IC50
Counter-ions that a name gives are not always drawn.
IC50 for assorted molecules
Provide the reading as a plain figure in nM.

Worked examples follow.
MOLECULE	UNITS_OF_MEASURE	IC50
COc1ccccc1-c1nccc(COc2ccccc2C[C@@H](Oc2ncnc3sc(-c4ccc(F)cc4)c(-c4ccc(OCCN5CC[N+](C)(Cc6ccc(NC(=O)[C@H](CCCNC(N)=O)NC(=O)[C@@H](NC(=O)CCOCCN7C(=O)C=CC7=O)C(C)C)cc6CN(C)C(=O)[C@H](CCC(=O)O)NC(=O)CS(=O)(=O)O)CC5)c(Cl)c4C)c23)C(=O)O)n1 [L71-P1]	nM	9.82
COc1ccccc1-c1nccc(COc2ccccc2C[C@@H](Oc2ncnc3sc(-c4ccc(F)cc4)c(-c4ccc(OCCN5CC[N+](C)(Cc6ccc(NC(=O)[C@H](CCCNC(N)=O)NC(=O)[C@@H](NC(=O)CCOCCN7C(=O)C=CC7=O)C(C)C)cc6CN(C)C(=O)[C@H](CCCCNC(=O)CS(=O)(=O)O)NC(=O)CS(=O)(=O)O)CC5)c(Cl)c4C)c23)C(=O)O)n1 [L78-P1]	nM	3.73

Moving on to the next molecule.
Quick check: IC50 on NOMO-1, item COc1ccccc1-c1nccc(COc2ccccc2C[C@@H](Oc2ncnc3sc(-c4ccc(F)cc4)c(-c4ccc(OCCN5CC[N+](C)(Cc6ccc(NC(=O)[C@H](CCCNC(N)=O)NC(=O)[C@@H](NC(=O)CCOCCN7C(=O)C=CC7=O)C(C)C)cc6COCc6cn(CCOC(=O)NS(=O)(=O)NCCOCCOCCOCCC(=O)O)nn6)CC5)c(Cl)c4C)c23)C(=O)O)n1 [L60-P1, trifluoroacetate] ?
2.62
